molecular target: human GCG receptor (human, UniProt P47871 26-477); assay: cell-based or functional assay
Sequence (P47871 26-477): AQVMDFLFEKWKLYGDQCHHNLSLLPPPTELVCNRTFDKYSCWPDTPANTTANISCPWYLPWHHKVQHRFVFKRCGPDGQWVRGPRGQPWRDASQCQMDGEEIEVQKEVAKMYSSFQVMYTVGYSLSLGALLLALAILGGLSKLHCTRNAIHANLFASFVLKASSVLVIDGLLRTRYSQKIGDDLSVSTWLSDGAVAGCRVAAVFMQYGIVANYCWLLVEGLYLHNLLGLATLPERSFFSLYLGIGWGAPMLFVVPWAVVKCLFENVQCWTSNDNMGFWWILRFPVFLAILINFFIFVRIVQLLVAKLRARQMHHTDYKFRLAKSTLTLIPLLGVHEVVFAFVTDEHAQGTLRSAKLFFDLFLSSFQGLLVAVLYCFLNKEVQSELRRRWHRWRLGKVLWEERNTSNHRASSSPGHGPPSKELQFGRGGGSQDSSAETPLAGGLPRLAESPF
Bridges are numbered along the chain shown (N, C = ends). Where no end group is shown, it is not given here. [ ]: non-standard residue; d: D form. The star is where a group is joined. Acetyl(2-(4-imidazolyl)) = O=C(Cc1c[nH]cn1)*; Aib = CC(C)(N)C(=O)O
Reported In vitro activity relative to native peptide (%) vs. Glucagon values follow for various binders

Binder | Val
{Acetyl(2-(4-imidazolyl))}-[Aib]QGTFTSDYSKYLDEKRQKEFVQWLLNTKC (bridge 15-19) [triple agonist of SEQ ID NO: 88] | 0.3%
{Acetyl(2-(4-imidazolyl))}-[Aib]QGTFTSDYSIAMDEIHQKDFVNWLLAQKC (bridge 15-19) [triple agonist of SEQ ID NO: 92] | < 0.1%

## Input So what does the record say about In vitro activity relative to native peptide (%) vs. Glucagon for Y[Aib]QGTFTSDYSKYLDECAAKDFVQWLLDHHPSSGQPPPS (bridge 16-20) [triple agonist of SEQ ID NO: 67] ?
## Output 46.2%

## Input Please do the same for Y[Aib]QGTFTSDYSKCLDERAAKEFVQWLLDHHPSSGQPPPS (bridge 16-20) [triple agonist of SEQ ID NO: 69] as well.
## Output 9.6%

## Input Now give it for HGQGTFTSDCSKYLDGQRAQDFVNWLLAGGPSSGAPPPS [triple agonist of SEQ ID NO: 48] too.
## Output < 0.1%
